The next entries give measured pIC50 for Beta-secretase 1 (Homo sapiens, UniProt P56817).
pIC50: −log10 of the molar value.
parameter: pIC50

[
  {
    "mol": "O=S(=O)(c1ccccc1)N(CCc1ccccc1)C[C@H](O)CN1CCN(C(c2ccccc2)c2ccccc2)CC1",
    "pIC50": 5.29
  },
  {
    "mol": "O=S(=O)(c1ccccc1)N(CCc1ccccc1)C[C@@H](O)CN1CCN(C(c2ccccc2)c2ccccc2)CC1",
    "pIC50": 5.16
  }
]

P = O=S(=O)(c1ccc(Cl)c(Cl)c1)N(CC1CC1)C[C@H](O)CN1CCN(C(c2ccccc2)c2ccccc2)CC1
Q = O=S(=O)(c1ccc(Cl)cc1)N(CCc1ccccc1)C[C@H](O)CN1CCN(C(c2ccccc2)c2ccccc2)CC1
Enquiry: Which numeric pIC50 is bigger, that of P or that of Q ? Indicate your choice by writing its label.
Return: Q
